system: CAKI-1 renal; test: NCI tumour cell line growth inhibition, 48 h; in the data active = GI50 below about 0.43 µM; inactive = the rest
Outcome codes: Yes = active, No = inactive

1. O=C1c2c(O)cccc2C(C(=O)CCCCCC(=O)C2c3cccc(O)c3C(=O)c3c(O)cccc32)c2cccc(O)c21
No
2. CCN(C(=O)N1CCN(c2cc3c(cc2F)c(=O)c(C(=O)O)cn3C2CC2)CC1)c1nc(-c2ccccc2)cs1
No
3. O=CC(OC(=O)c1ccccc1)C(OC(=O)c1ccccc1)C(COC(c1ccccc1)(c1ccccc1)c1ccccc1)OC(=O)c1ccccc1 (stereo not given)
No
4. O=C(COc1ccc(/C=C2\Oc3ccc4ccccc4c3C2=O)cc1)c1ccc([N+](=O)[O-])cc1
No
5. COc1ccccc1-n1cnc(N)c1C(=O)c1cc(OC)c(OC)c(OC)c1
No
6. C[C@H]1CCC/C=C/C2CC(OC(=O)CN(C)C)CC2C(OC(=O)CN(C)C)/C=C/C(=O)O1 (stereo not given in full)
Yes
7. Cc1nnc(C[C@@H]2C=C(c3ccc(Cl)cc3)c3ccccc3-n3c(C)nnc32)o1
Yes
8. Cc1cc(S(=O)(=O)/N=C(\N)Nc2cccc(O)c2)c(SCc2ccccc2)cc1Cl
No
9. COc1ccc(-n2cc(-c3cc(OC)c(OC)c(OC)c3)nc2SCc2ccc(Cl)cc2)cc1OC
No
10. CN(C)c1ccc(C(=S)c2ccc(N(C)C)cc2)cc1
No
